- test_method_notes: physchem
- measurement_setup: water
Where a name gives a salt, the structure may show the parent alone. Where a SMILES comes first, the peptide text is derived from it. [ ]: non-standard residue; d: D form. The star is where a group is joined. pGlu = O=C1CC[C@@H](C(=O)O)N1; Octanoyl = CCCCCCCC(=O)*
# Lookup of reported solubility keyed by entry
Record the value in mg/mL, omitting the unit from your answer.

# compound, unit_info, solubility
measured = [
    ("C[C@@H](O)[C@H](NC(=O)[C@H](Cc1c[nH]c2ccccc12)NC(=O)[C@H](CC(N)=O)NC(=O)[C@@H]1CCC(=O)N1)C(=O)O [ZEP4 sodium salt, pGlu-Asn-Trp-Thr-OH.nNa] (HELM PEPTIDE1{[Glp].N.W.T}$$$$V2.0)", "mg/mL", 50),
]

// below: solubility requested for another compound
Enquiry: Entry under review: CCCCCCCC(=O)NCCCC[C@H](NC(=O)[C@H](Cc1c[nH]c2ccccc12)NC(=O)[C@H](CC(N)=O)NC(=O)[C@@H]1CCC(=O)N1)C(=O)O [ZEP3Na, pGlu-Asn-Trp-Lys(Octanoyl)-OH.nNa] ([pGlu]NWK(Octanoyl)-OH) . Reported solubility?
Return: 50
